- Read-out: C-C motif chemokine 2 (Homo sapiens) (UniProt P13500)
- experiment: BSK_KF3CT_MCP1: BioMAP Diversity Plus: KF3CT Assay for Monocyte Chemoattractant Protein 1 (MCP1/CCL2) Biomarker Activity (AID 2283073)
- test-conditions: primary human keratinocytes with fibroblasts; actives raise or lower the signal
- Protocol: BSK_KF3CT is a cell-based, multiplexed-readout assay that uses keratinocytes and foreskin fibroblasts, a human skin primary cell co-culture, with measurements taken at 24 hours after chemical dosing in a 96-well plate.BSK_KF3CT_MCP1 is an assay component measured in the BSK_KF3CT assay. It measures MCP-1 antibody related to regulation of gene expression using ELISA technology.Data from the assay component BSK_KF3CT_MCP1 was analyzed into 1 assay endpoint. […]
The source made the active and inactive calls. Rule for the calls: active = hit-call score of the fitted dose curve at least 0.9, where 1 is the maximum; inactive = score below 0.9.
Labels: label 1 (active), label 0 (inactive)

molecule | class-label
CCCCCCCCCC(=O)OCC | label 1
CCCCCCCC1CCCC1=O (stereo not drawn) | label 1
O=S1(=O)CC(Cl)(Cl)C(Cl)(Cl)C1 | label 1
CC(C)(C)c1cccc(O)c1 | label 0
CC(=O)OC(C)(C)C1CC=C(C)CC1 (stereo not drawn) | label 0
c1ccc2c(c1)-c1ccc3ccc4cccc5cc-2c1c3c45 | label 1
CCOC(=O)C=Cc1ccccc1 | label 0
O=C(c1ccc(OCCN2CCCCC2)cc1)c1c(-c2ccc(O)cc2)sc2cc(O)ccc12 | label 1
O=C(O)C(F)(F)OC(F)(F)C(F)(F)OC(F)(F)C(F)(F)C(F)(F)C(F)(F)F | label 0
CC(=O)CCC=C(C)CCC=C(C)C | label 0
O=C(O)C(F)(F)C(F)(F)C(F)(F)C(F)(F)C(F)(F)C(F)(F)C(F)(F)C(F)F | label 0
CC(=O)c1ccc(C)cc1 | label 0
C=C(C)C(N)=O | label 0

* * *

- experiment: ATG_PXRE_CIS: Attagene CIS-FACTORIAL HepG2 Assay for human Pregnane X Receptor Element (PXRE) (AID 2282957)
- test-conditions: HepG2 Attagene CIS-FACTORIAL PXRE reporter, mRNA; actives raise or lower the signal
Activity calls are given as the source filed them. How the source made its calls: active means hit-call score of the fitted dose curve at least 0.9, where 1 is the maximum; inactive means score below 0.9.
Labels: true (1) (active), false (0) (inactive)

molecule | class-label
OCCCO | false (0)
N#CCCCC(C#N)CCC#N (stereo unspecified) | false (0)
O=C1OC2(c3ccc(O)cc3Oc3cc(O)ccc32)c2ccccc21 | true (1)
Nc1ccc(N)c([N+](=O)[O-])c1 | false (0)
O=C1CCCCCCCCCCCC(=O)OCCO1 | false (0)
C=CCCCCCCCCC(=O)OCC | false (0)
CCCCCCCCOS(=O)(=O)O | false (0)
CCCCCCCCCCCCS | true (1)
C=C1CC/C=C(\C)CC[C@@H]2[C@@H]1CC2(C)C | true (1)
CCCCCCCOC(C)=O | true (1)
c1ccc(Sc2ccccc2)cc1 | true (1)
c1ccc2c(c1)-c1ccc3ccc4cccc5cc-2c1c3c45 | true (1)
CC(O)COCC(C)O (stereo unspecified) | false (0)
Cc1ccccc1S | true (1)
O=c1cc[nH]cc1 | true (1)
CCCCCc1cccc(=O)o1 | true (1)

* * *

- measured-on: Oxysterols receptor LXR-alpha (Homo sapiens)
- experiment: ATG_LXRa_TRANS: Attagene TRANS-FACTORIAL HepG2 Assay for human Liver X Receptor alpha (LXRa) (AID 2282980)
- test-conditions: HepG2 Attagene TRANS reporter, LXRa transactivation
Results filed as inconclusive are left out. Activity calls are given as the source filed them. The calls were made as follows: active = hit-call score of the fitted dose curve at least 0.9, where 1 is the maximum; inconclusive = response in the unintended direction; inactive = score below 0.9.

compound | outcome
FC(F)(F)c1ccc(Cl)c(Cl)c1 | inactive
OCCN1CCOCC1 | inactive
CC1(C)CC(=O)CC(C)(C)N1 | inactive
C[C@]12CC[C@@H]3c4ccc(O)cc4CC[C@H]3[C@@H]1CC[C@@H]2O | inactive
O=c1cc[nH]cc1 | inactive
CCCCCCCCOC(C)=O | inactive
C=CC(C)(CCC=C(C)C)OC(=O)CC (stereo not drawn) | inactive
CCCCCCOc1ccc(O)cc1 | inactive

* * *

- measured-on: AR (gene 367)
- experiment: ACEA_AR_antagonist_80hr: ACEA Biosciences xCELLigence Real-Time Cell Analysis on Androgen Receptor Antagonism for Proliferation (AID 2283787);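 note: 22Rv1 human prostate cancer cells with growth followed by electrical impedance; hits lower the impedance growth signal relative to DMSO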
Records with an inconclusive call do not appear. Active and inactive are the calls of the source. How the source made its calls: active means hit-call score of the fitted dose curve at least 0.9, where 1 is the maximum; inconclusive means response in the unintended direction; inactive means score below 0.9.
Labels: active, inactive

molecule | class-label
CCCCCCOc1ccc(O)cc1 | active
COc1cc(OC)c2ccc(=O)oc2c1 | active
CC1COC(=O)O1 (stereo unspecified) | inactive
CCCCCCCCCCOC(=O)c1ccccc1C(=O)OCCCCCCCC | inactive
CC(C)(CO)CO | inactive
CC(CCO)CC(C)(C)C (stereo unspecified) | inactive

* * *

- Read-out: Plasminogen activator inhibitor-1 (PAI1), SERPINE1 (gene 5054)
- experiment: BSK_hDFCGF_PAI1: BioMAP Diversity Plus: hDFCGF Assay for Plasminogen activator inhibitor-1 (PAI1) Biomarker Activity (AID 2283066)
- test-conditions: primary human foreskin fibroblasts; actives raise or lower the signal
Calls of active or inactive are those of the source. How the source made its calls: active means hit-call score of the fitted dose curve at least 0.9, where 1 is the maximum; inactive means score below 0.9.
Labels: active, inactive

given-smiles | class-label
CCC(=O)OCC=Cc1ccccc1 | inactive
CCCCN(CCO)CCO | inactive
C=C(C)C(N)=O | inactive
CC=CC(=O)C1=C(C)C=CCC1(C)C | active
OCCN1CCOCC1 | inactive
C=C1CC/C=C(\C)CC[C@@H]2[C@@H]1CC2(C)C | active
O=C(c1ccc(OCCN2CCCCC2)cc1)c1c(-c2ccc(O)cc2)sc2cc(O)ccc12 | active
CCn1cc(C(=O)O)c(=O)c2ccc(C)nc21 | inactive
CC(=O)c1ccc(C)cc1 | inactive
C=CC(=O)OCC(CO)(COC(=O)C=C)COC(=O)C=C | active
CC(C)(C)c1cccc(O)c1 | inactive
CCCCCCCCCCCCS | active
CCOC(=O)CCCCCCCCC(=O)OCC | inactive
CCCO[Si](OCCC)(OCCC)OCCC | inactive

* * *

- Read-out: ABC Transporter (ABCC2), ABCC2 (gene 1244)
- experiment: LTEA_HepaRG_ABCC2: Life Technologies and Expression Analysis (LTEA) Assay for ABC Transporter (ABCC2) using HepaRG (AID 2283464)
- test-conditions: mRNA level, 48 h; actives raise or lower the signal
- Procedure: LTEA_HepaRG is a cell based, multiplexed-readout assay that uses HepaRG, a human liver cell line, with measurements taken at 48 hours after chemical dosing on a 96-well plate.LTEA_HepaRG_ABCC2 is one of 102 assay component(s) measured in the LTEA HepaRG cell culture assay. It is a marker of Steatosis/NR mediated transport.Data from the assay component LTEA_HepaRG_ABCC2 was analyzed into 1 endpoint. […]
Active and inactive are the calls of the source. Rule for the calls: active = hit-call score of the fitted dose curve at least 0.9, where 1 is the maximum; inactive = score below 0.9.
Labels: TRUE for active, FALSE for inactive

given-smiles | class-label
C[C@]12CC[C@@H]3c4ccc(O)cc4CC[C@H]3[C@@H]1CC[C@@H]2O | TRUE
O=C(c1ccc(OCCN2CCCCC2)cc1)c1c(-c2ccc(O)cc2)sc2cc(O)ccc12 | TRUE
C#C[C@]1(O)CC[C@H]2[C@@H]3CCc4cc(O)ccc4[C@H]3CC[C@@]21C | FALSE
C=C(C)C(N)=O | FALSE

* * *

- experiment: CCTE_Shafer_MEA_acute_per_network_burst_spike_number_mean: CCTE's Neural Acute Assay for Average Number of Spikes in a Network Burst, Shafer Lab (AID 2284019)
Activity calls are given as the source filed them. How the source made its calls: active means hit-call score of the fitted dose curve at least 0.9, where 1 is the maximum; inactive means score below 0.9.
Labels: active, inactive

given-smiles | class-label
N[C@@H](CCC(=O)O)C(=O)O | inactive
c1ccc(OCCOc2ccccc2)cc1 | inactive
CCCCOCCOCCO | inactive
CCCO[Si](OCCC)(OCCC)OCCC | inactive
CC/C(=C(\c1ccccc1)c1ccc(OCCN(C)C)cc1)c1ccccc1 | inactive
CC(=O)c1ccc(C)cc1 | inactive
CCn1cc(C(=O)O)c(=O)c2ccc(C)nc21 | inactive
CC(C)(CO)CO | inactive
O=C(c1ccc(OCCN2CCCCC2)cc1)c1c(-c2ccc(O)cc2)sc2cc(O)ccc12 | active

* * *

- Read-out: Matrix Metallopeptidase 1 (MMP1), MMP1 (gene 4312)
- experiment: BSK_BE3C_MMP1: BioMAP Diversity Plus: BE3C Assay for Matrix Metallopeptidase 1 (MMP1) Biomarker Activity (AID 2283024)
- test-conditions: primary human bronchial epithelial cells; actives raise or lower the signal
Active and inactive are the calls of the source. How the source made its calls: active means hit-call score of the fitted dose curve at least 0.9, where 1 is the maximum; inactive means score below 0.9.

compound | AC50
CCCCOCCOCCO | inactive
CCCCCCCC1CCCC1=O (stereo not drawn) | 32.8 µM (active)
CC(=O)c1ccc(C)cc1 | inactive
C[C@]12CC[C@@H]3c4ccc(O)cc4CC[C@H]3[C@@H]1CC[C@@H]2O | inactive
Nc1ccc(N)c([N+](=O)[O-])c1 | inactive
OCCN1CCOCC1 | inactive
CCOC(=O)C=Cc1ccccc1 | inactive
CCn1cc(C(=O)O)c(=O)c2ccc(C)nc21 | inactive
c1ccc2c(c1)-c1ccc3ccc4cccc5cc-2c1c3c45 | inactive
O=C1OC2(c3ccc(O)cc3Oc3cc(O)ccc32)c2ccccc21 | inactive
O=C(c1ccc(OCCN2CCCCC2)cc1)c1c(-c2ccc(O)cc2)sc2cc(O)ccc12 | 32.2 µM (active)
C=C(F)C(=O)OC(C(F)(F)F)C(F)(F)F | inactive
CC(=O)CCC=C(C)CCC=C(C)C | inactive
